SYSTEM UNDER TEST: T1, recombinant human domain 1-3His6 of the cation-independent mannose-6-phosphate receptor (human, UniProt P11717 41-467)
T1 construct: Biotinylated (NHS-PEG4-biotin) for BLI; Glycosylated; also called hDom1-3His6; hCI-M6PRD1-D3
EXPERIMENT DESCRIPTION: BLI exp 1, dissoc pH 5
Procedure: For each of the 11 anti-CI-M6PR VHHs, a biolayer interferometry (BLI) experiment was performed in which the hDom₁₋₃His₆ was biotinylated and coupled to streptavidin biosensor tips. Afterwards, the tips were incubated with serially diluted VHHs during the association phase and dissociation was performed at pH 7.4. Similarly, dissociation was performed at pH 7.0, pH 6.0 and pH 5.0 as well after regeneration of the biosensor tips. […]
MEASURED ATTRIBUTE: koff (s⁻¹)

| BINDER | UNITS OF MEASURE | koff |
| --- | --- | --- |
| anti-CI-M6PR VHH10 (VHH, His6-tagged; made in Pichia pastoris) VHH: QVQLQESGGGSVQAGGSLRLSCAPAGRTFSRIRMGWFRQAPGKEREFVAAISSGGLSYYADSMKGRFTISRDNAKNTVLLQMNSLEPDDTAVYYCAAVLNDYIDDYVARNPTLYDYWGQGTQVTVSS | s⁻¹ | 0.0106 |
| anti-CI-M6PR VHH2 (VHH, His6-tagged; made in Pichia pastoris) VHH: QVQLQESGGGLVQPGGSLRLSCVFSGRTFMSYDVGWFRQAPGKERELLSSITSSSSSPYYAESVKGRFAVSRDGAKKTVYLRMNSLEPEDTAVYYCAARENWRNDWQYWGQTQVTVSS | s⁻¹ | 0.00746 |
